targetSystem: FXR (Homo sapiens, UniProt Q96RI1)
Construct: using a full length FXR on a natural response element; expressed in transfected cells
testMethodNotes: cell-based transcription assay, FXR responsive promoter linked to a luciferase reporter
testConditions: Tables 1-15; FXR activation, cell-based reporter assay; read-out: EC50
# EC50 listing for each entry below

# structureString, unitText, EC50
data = [
    ("COC(=O)C=Cc1cccc(N(Cc2ccc(C=Cc3c(C)cc(C)cc3C)cc2)C(=O)C2CCCCC2)c1", "nM", 518),
    ("COC(=O)/C=C/c1cccc(N(Cc2ccc(-c3cc(Cl)cc(Cl)c3)cc2)C(=O)C2CCCCC2)c1", "nM", 284),
    ("COC(=O)/C=C/c1cccc(N(Cc2ccc(/C=C/c3c(C)cc(C)cc3C)cc2)C(=O)NC(C)C)c1", "nM", 431),
    ("COC(=O)/C=C/c1cccc(N(Cc2ccc(/C=C/c3cc(C(F)(F)F)cc(C(F)(F)F)c3)cc2)C(=O)NC(C)C)c1", "nM", 1830),
]

---

targetSystem: FXR (Homo sapiens, UniProt Q96RI1)
Construct: using a full length FXR on a natural response element; expressed in transfected cells
Sequence (Q96RI1 1-486): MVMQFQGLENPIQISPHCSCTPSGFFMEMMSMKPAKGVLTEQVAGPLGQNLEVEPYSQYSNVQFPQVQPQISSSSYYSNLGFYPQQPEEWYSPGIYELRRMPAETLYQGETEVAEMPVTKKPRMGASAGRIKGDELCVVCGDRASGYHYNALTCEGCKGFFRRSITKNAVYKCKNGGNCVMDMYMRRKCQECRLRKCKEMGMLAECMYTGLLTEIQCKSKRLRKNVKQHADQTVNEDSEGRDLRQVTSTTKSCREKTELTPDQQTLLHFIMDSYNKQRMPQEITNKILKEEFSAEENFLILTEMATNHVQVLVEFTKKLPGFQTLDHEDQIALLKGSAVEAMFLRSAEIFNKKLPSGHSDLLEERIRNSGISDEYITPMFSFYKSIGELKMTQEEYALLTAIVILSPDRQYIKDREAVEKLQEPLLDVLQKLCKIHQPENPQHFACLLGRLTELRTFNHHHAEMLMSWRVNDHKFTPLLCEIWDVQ
testMethodNotes: cell-based transcription assay, FXR responsive promoter linked to a luciferase reporter
Parameters: scale not given here
testConditions: Tables 1-15; RE not defined in the source

# compound, targetSystem, RE
rows = [
    ("COC(=O)/C=C/c1cccc(N(Cc2ccc(/C=C/c3cccc(Cl)c3)cc2)C(=O)C(C)C)c1", "FXR (Homo sapiens, UniProt Q96RI1)", 1.09),
    ("COC(=O)/C=C/c1cccc(N(Cc2ccc(-c3ccccc3OC)cc2)C(=O)NC(C)C)c1", "FXR (Homo sapiens, UniProt Q96RI1)", 0.09),
    ("COC(=O)/C=C/c1cccc(N(Cc2ccc(C(C)(C)C)cc2)C(=O)C2CCCCC2)c1", "FXR (Homo sapiens, UniProt Q96RI1)", 0.15),
    ("COC(=O)C=Cc1cccc(N(Cc2ccc(C=Cc3ccccn3)cc2)C(=O)NC(C)C)c1", "FXR (Homo sapiens, UniProt Q96RI1)", 0.68),
    ("COC(=O)C=Cc1cccc(N(Cc2ccc(-c3ccc(C)s3)cc2)C(=O)C2CCCCC2)c1", "FXR (Homo sapiens, UniProt Q96RI1)", 1.78),
    ("COC(=O)/C=C/c1cccc(N(Cc2ccc(-c3ccc(OC)cc3)cc2)C(=O)NC(C)C)c1", "FXR (Homo sapiens, UniProt Q96RI1)", 1.16),
    ("COC(=O)C=Cc1cccc(N(Cc2ccc(C=CC(=O)NCC(C)C)cc2)C(=O)C2CCCCC2)c1", "FXR (Homo sapiens, UniProt Q96RI1)", 1.85),
    ("COC(=O)/C=C/c1cccc(N(Cc2ccc(/C=C/c3cccc(F)c3)cc2)C(=O)NC(C)C)c1", "FXR (Homo sapiens, UniProt Q96RI1)", 0.61),
    ("COC(=O)/C=C/c1cccc(N(Cc2ccc(-c3ccc(F)c(Cl)c3)cc2)C(=O)NC(C)C)c1", "FXR (Homo sapiens, UniProt Q96RI1)", 0.41),
    ("COC(=O)/C=C/c1cccc(N(Cc2ccc(-c3ccc(OC)cc3)cc2)C(=O)C2CCCCC2)c1", "FXR (Homo sapiens, UniProt Q96RI1)", 1.71),
    ("COC(=O)/C=C/c1cccc(N(Cc2cccc(Br)c2)C(=O)C2CCCCC2)c1", "FXR (Homo sapiens, UniProt Q96RI1)", 0.10),
    ("COC(=O)/C=C/c1cccc(N(Cc2ccc(-c3ccc(N(C)C)cc3)cc2)C(=O)C2CCCCC2)c1", "FXR (Homo sapiens, UniProt Q96RI1)", 1.72),
    ("COC(=O)C=Cc1cccc(N(Cc2ccc(C=CC(=O)OC(C)C)cc2)C(=O)C2CCCCC2)c1", "FXR (Homo sapiens, UniProt Q96RI1)", 1.97),
    ("COC(=O)/C=C/c1cccc(N(Cc2ccc(-c3cc(Cl)ccc3OC)cc2)C(=O)C2CCCCC2)c1", "FXR (Homo sapiens, UniProt Q96RI1)", 1.16),
    ("COC(=O)/C=C/c1cccc(N(Cc2ccc(-c3cccc(C)c3)cc2)C(=O)NC(C)C)c1", "FXR (Homo sapiens, UniProt Q96RI1)", 0.53),
    ("COC(=O)/C=C/c1cccc(N(Cc2ccc(/C=C/c3cc(C(F)(F)F)cc(C(F)(F)F)c3)cc2)C(=O)NC(C)C)c1", "FXR (Homo sapiens, UniProt Q96RI1)", 0.13),
    ("COC(=O)/C=C/c1cccc(N(Cc2ccc(-c3ccc(F)c(F)c3)cc2)C(=O)C(C)C)c1", "FXR (Homo sapiens, UniProt Q96RI1)", 1.15),
    ("CCOC(=O)C=Cc1ccc(CN(C(=O)C2CCCCC2)c2cccc(C=CC(=O)OC)c2)cc1", "FXR (Homo sapiens, UniProt Q96RI1)", 1.14),
    ("COC(=O)C=Cc1cccc(N(Cc2ccc(C=Cc3scnc3C)cc2)C(=O)C(C)C)c1", "FXR (Homo sapiens, UniProt Q96RI1)", 0.32),
    ("COC(=O)/C=C/c1cccc(N(Cc2ccccc2)C(=O)C2CCCCC2)c1", "FXR (Homo sapiens, UniProt Q96RI1)", 0.09),
    ("COC(=O)/C=C/c1cccc(N(Cc2ccc(-c3c(OC)cccc3OC)cc2)C(=O)C2CCCCC2)c1", "FXR (Homo sapiens, UniProt Q96RI1)", 0.12),
    ("COC(=O)/C=C/c1cccc(N(Cc2ccc(/C=C/c3ccc(C)cc3)cc2)C(=O)C2CCCCC2)c1", "FXR (Homo sapiens, UniProt Q96RI1)", 0.83),
    ("COC(=O)C=Cc1cccc(N(Cc2ccc(C=Cc3c(F)cccc3F)cc2)C(=O)C2CCCCC2)c1", "FXR (Homo sapiens, UniProt Q96RI1)", 0.94),
    ("COC(=O)C=Cc1cccc(N(Cc2ccc(C=CC(=O)N(C)C)cc2)C(=O)C2CCCCC2)c1", "FXR (Homo sapiens, UniProt Q96RI1)", 0.66),
    ("CC(C)(C)OC(=O)C=Cc1ccc(CN(C(=O)C2CCCCC2)c2cccc(C=CC(N)=O)c2)cc1", "FXR (Homo sapiens, UniProt Q96RI1)", 0.50),
    ("COC(=O)/C=C/c1cccc(N(Cc2ccc(-c3cccc(Cl)c3)cc2)C(=O)NC(C)C)c1", "FXR (Homo sapiens, UniProt Q96RI1)", 0.49),
    ("COC(=O)/C=C/c1cccc(N(Cc2cccc(OC)c2)C(=O)C2CCCCC2)c1", "FXR (Homo sapiens, UniProt Q96RI1)", 0.11),
    ("COC(=O)/C=C/c1cccc(N(Cc2ccc3c(c2OC)OC(C)(C)C2C3C2(Cl)Cl)C(=O)c2ccccc2)c1 (stereo not drawn)", "FXR (Homo sapiens, UniProt Q96RI1)", 0.64),
    ("COC(=O)/C=C/c1cccc(N(Cc2ccc(-c3ccccc3OC)cc2)C(=O)C2CCCCC2)c1", "FXR (Homo sapiens, UniProt Q96RI1)", 0.40),
    ("COC(=O)/C=C/c1cccc(N(Cc2ccc(/C=C/c3ccccc3)cc2)C(=O)C(C)C)c1", "FXR (Homo sapiens, UniProt Q96RI1)", 1.33),
]

---

Quick list: RE per entry.
targetSystem: FXR (Homo sapiens, UniProt Q96RI1)
Construct: using a full length FXR on a natural response element; expressed in transfected cells
testMethodNotes: cell-based transcription assay, FXR responsive promoter linked to a luciferase reporter
Set-up: scale not given here
testConditions: Tables 1-15; RE not defined in the source
Method: In addition to ensuring that only cell permeable compounds were selected for further optimization, this approach allows for the detection of FXR activation in a natural system (i.e., correct folding of the protein and in the presence of a complete compliment of co-activators and co-repressors). […] EC50 values were determined with Prism 3.0 software via the activity of the subject compound in the previously described cell based assay.
reportedEndpoint: RE

# compound, reportedEndpoint, numericResult
measured = [
    ("COC(=O)C=Cc1cccc(N(Cc2ccc(C=CC(=O)OC(C)(C)C)cc2OC(=O)c2ccccc2)C(=O)C2CCCCC2)c1 [Compound 165]", "RE", 0.16),
    ("CCOc1cccc(-c2ccc(CN(C(=O)C3CCCCC3)c3cccc(/C=C/C(=O)OC)c3)cc2)c1 [Compound 226]", "RE", 1.37),
    ("COC(=O)/C=C/c1cccc(N(Cc2ccc(/C=C/C(=O)OC(C)(C)C)cc2)C(=O)NCc2ccccc2)c1 [Compound 146]", "RE", 0.27),
    ("COC(=O)/C=C/c1cccc(N(Cc2ccc(/C=C/c3cccc(C(F)(F)F)c3)cc2)C(=O)C(C)C)c1 [Compound 187]", "RE", 0.70),
]
